# pIC50 annotations
system: Influenza A virus; experiment: Antiviral activity against amantadine-sensitive Influenza A virus A/HK/68 (H3N2) expressing wild type M2 ion channel infected in MDCK cells assessed as protection against virus induced cytopathic effect after 48 hrs by microscopic analysis; assay type: functional, organism-based, Influenza A virus (A/Hong Kong/1/1968(H3N2)); conditions: Influenza A virus, MDCK, 48 h; read-out: IC50
pIC50: −log10 of the molar value.
measurement kind: pIC50

- smiles data: "CCCc1nc(C(C)C)[nH]c1CN[C@@H]1C[C@@H]2C[C@H]([C@H]1C)C2(C)C"
  obs value: 4.99
- smiles data: "C[C@@H]1[C@H]2C[C@@H](C[C@H]1NCc1cnc(-c3ccccc3)[nH]1)C2(C)C"
  obs value: 5.12
- smiles data: "C[C@@H]1[C@H]2C[C@@H](C[C@H]1NCc1cnc(C(C)(C)C)[nH]1)C2(C)C"
  obs value: 5.06
- smiles data: "CCCc1nc(-c2ccccc2)[nH]c1CN[C@@H]1C[C@@H]2C[C@H]([C@H]1C)C2(C)C"
  obs value: 4.87
- smiles data: "Cc1nc[nH]c1CN[C@@H]1C[C@@H]2C[C@H]([C@H]1C)C2(C)C"
  obs value: 5.49
- smiles data: "C[C@@H]1[C@H]2C[C@@H](C[C@H]1NCc1cncn1C)C2(C)C"
  obs value: 4.92
